tested on: ACHN renal; assay: NCI-60 one-dose screen, 48 h (100 = growth as untreated, 0 = no growth, -100 = all killed); settings: 10 µM unless noted
About 83,000 compounds went through this panel and 20% of them were active in at least one assay; those are over-represented in the sample as a whole.
Please respond with reported growth for every item in the list.
Respond with the bare value in %.

[in] // growth lookup, key: O=C(NCCNc1nccc(-c2c(-c3cccc(O)c3)nc3sccn23)n1)Nc1cccc(C(F)(F)F)c1
[out] 85.1

[in] // growth lookup, key: CC1=C[S+](c2ccccc2)c2cccc3cc4ccccc4c1c23 (stereo unspecified)
[out] 15.3

[in] // growth lookup, key: O=C1OC(N(Cc2ccc(Cl)cc2)c2ccccc2)c2ccccc21 (stereo unspecified)
[out] 108

[in] // growth lookup, key: S=c1ssnc1-c1ccccn1
[out] 15.4

[in] // growth lookup, key: COc1cc(/C=C/C(=O)N2CCC=CC2=O)cc(OC)c1OC
[out] -7.71

[in] // growth lookup, key: Cn1c(I)c(C#C[Si](C)(C)C)c(=O)[nH]c1=O
[out] -28.4
